MEASUREMENT_DESCRIPTION: supercomplex reporter luminescence per Hoechst cell count – Hoechst nuclei count (AID 1645838);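 also: control cybrid cells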
CONDITION: Cells, luminescence/Hoechst cell count ratio, measured here: cell number, Hoechst nuclei count, library stock concentration (final well concentration not given) 46 uM
About 100 (5%) of roughly 2,000 compounds were called active. The list comes from a sample in which actives are over-represented; it also holds close analogues and randomly drawn compounds.
Mark each entry 1 if its cell count sits below 7000, and -1 for all others.

Use these answered entries as a reference point.
MOLECULE | ASSIGNED_LABEL
CC=C(C)C(=O)OC1C(C)=C[C@]23C(=O)C(C=C(CO)C(O)[C@]12O)C1C(CC3C)C1(C)C (some centres undefined) | 1
CC(C)(C)CC1NC(C(=O)NC2CCC(O)CC2)C(c2cccc(Cl)c2F)[C@]12C(=O)Nc1cc(Cl)ccc12 (some centres undefined) | -1
O=C(O)c1ccc(-c2c[nH]c3ncc(-c4ccccc4)cc23)cc1C1CCCC1 | 1
O=C(Nc1cccc(Nc2ncc(Br)c(NCCc3cnc[nH]3)n2)c1)N1CCCC1 | 1
NS(=O)(=O)OCC1CC(n2ccc3c(NC4CCc5ccccc54)ncnc32)CC1O (centres undefined) | 1
Cn1cc(-c2ccc3c(c2)CCN3C(=O)Cc2cccc(C(F)(F)F)c2)c2c(N)ncnc21 | 1

Query block: Is cell count strictly under 7000 for the entry CC(C)OC(=O)N1CCC(Oc2ncnc3c2cnn3-c2ccc(S(C)(=O)=O)cc2F)CC1 ?
Result block: -1

Query block: Is cell count strictly under 7000 for the entry O=c1cc(N2CCOCC2)oc2c1ccc1ccccc12 ?
Result block: 1
